# key: entry, value: pKd
- testedOn: ARHGEF12, Q9NZN5-2
- Sequence (Q9NZN5 other isoform, or with tags, fused parts or gaps): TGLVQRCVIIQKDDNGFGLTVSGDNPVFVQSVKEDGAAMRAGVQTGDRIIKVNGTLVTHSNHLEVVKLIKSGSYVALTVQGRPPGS
- assayMethodText: holdup assay
- Set-up: key: below the threshold = too weak to quantify, mostly under pKd 3.1 to 4
- testContext: plain residues with an end cap or a label only (N-terminal biotin on a linker: ttds)
The reply should be a number, written without any unit.

Answered examples (2):
- binder: "STLTIFETAL [ABCC4, O15439]"
  valueMeasured: 5.21
- binder: "VLRLQSETSV [VANGL1, Q8TAA9]"
  valueMeasured: 3.7

Would you kindly look at the next entry?
Which pKd is reported for this binder? RSLEEEESQL [GRASP, Q7Z6J2]
3.56
